target: human M4 receptor (Homo sapiens (Human), UniProt P08173)
Sequence (P08173 whole entry): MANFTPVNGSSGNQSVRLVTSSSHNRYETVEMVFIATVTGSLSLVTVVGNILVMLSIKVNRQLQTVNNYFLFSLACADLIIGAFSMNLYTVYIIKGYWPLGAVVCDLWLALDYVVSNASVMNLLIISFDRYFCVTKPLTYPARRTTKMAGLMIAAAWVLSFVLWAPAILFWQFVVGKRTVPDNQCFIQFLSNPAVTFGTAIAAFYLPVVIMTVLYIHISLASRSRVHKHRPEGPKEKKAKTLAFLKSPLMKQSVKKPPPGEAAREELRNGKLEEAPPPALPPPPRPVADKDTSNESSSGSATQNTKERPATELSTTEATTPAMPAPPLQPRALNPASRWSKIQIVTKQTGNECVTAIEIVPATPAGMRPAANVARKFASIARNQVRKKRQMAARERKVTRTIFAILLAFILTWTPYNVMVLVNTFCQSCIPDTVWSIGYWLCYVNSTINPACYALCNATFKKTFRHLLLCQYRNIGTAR
assay name: Radioligand (tritiated N-methylscopolamine) binding assay, M4
condition set: Ki against the M4 receptor; membranes from CHO cells expressing human M4; tritiated N-methylscopolamine 1.5 nM; read-out: Ki
pKi: −log10 of the molar value.
Give pKi for every item shown.

{"line notation": "C[C@@H]1CN(c2ncc(Br)c(Cl)n2)CCN1C(=O)NCCC1CCN(Cc2ccccc2)CC1", "target": "human M4 receptor (Homo sapiens (Human), UniProt P08173)", "pKi": "6.00 to 7.00"}
{"line notation": "C[C@@H]1CN(c2ccc(F)c(C#N)c2)CCN1C(=O)NCCC1CCN(Cc2ccccc2)CC1", "target": "human M4 receptor (Homo sapiens (Human), UniProt P08173)", "pKi": "> 8.00"}
{"line notation": "Cc1c(C(=O)NCCC2CCN(Cc3ccncc3)CC2)cnc2cc(-c3cccc(C(F)(F)F)c3)nn12", "target": "human M4 receptor (Homo sapiens (Human), UniProt P08173)", "pKi": "6.00 to 7.00"}

List reported pKi for each of these molecules:
1. CCN(C)C(=O)c1cnc(N2CCN(C(=O)NCCC3CCN(Cc4ccccc4)CC3)[C@H](C)C2)nc1
2. C[C@@H]1CN(c2cc(F)c(F)c(F)c2)CCN1C(=O)NCCC1CCN(Cc2ccccn2)CC1
3. Cc1cc(N2CCC(C(=O)NCCC3CCN(Cc4ccccc4)CC3)CC2)ccc1OC(F)(F)F
4. O=C(NC1CCN(c2ccc(F)cc2)CC1)OCCC1CCN(Cc2ccccc2)CC1
5. Cn1cccc1CN1CCC(CCNC(=O)C2CCN(c3ccc(OC(F)(F)F)cc3)CC2)CC1
6. C[C@@H]1CN(c2cc(F)c(F)c(F)c2)CCN1C(=O)NCCN1CCC(O)(Cc2ccccc2)CC1
7. C[C@@H]1CN(c2ccc(OC(F)(F)F)c(C#N)c2)CCN1C(=O)NC[C@H](O)C1CCN(Cc2ccccc2)CC1
8. C[C@@H]1CN(c2cnc(C#N)cn2)CCN1C(=O)NCCC1CCN(Cc2ccccc2)CC1

["6.00 to 7.00", "7.00 to 8.00", "> 8.00", "6.00 to 7.00", "6.00 to 7.00", "6.00 to 7.00", "> 8.00", "7.00 to 8.00"]

For each listed entry, give its pKi.
1. COc1cc(OC(F)(F)F)cc(N2CCC(C(=O)NCCC3CCN(Cc4ccccc4)CC3)CC2)c1
2. C[C@@H]1CN(c2ccc(F)c(C#N)c2)CCN1C(=O)N(C)C[C@@H](O)C1CCN(Cc2ccccc2)CC1
3. C[C@@H]1CN(c2cc(F)c(F)c(F)c2)CCN1C(=O)NCCC1CCN(Cc2ccc(C#N)cc2F)CC1
4. C[C@@H]1CN(c2ccccc2)CCN1C(=O)NCCC1CCN(Cc2ccccc2)CC1
5. C[C@@H]1CN(c2ccc(C(F)(F)F)cn2)CCN1C(=O)NCCC1CCN(Cc2ccccc2)CC1
6. C[C@@H]1CN(c2ccc(C#N)cn2)CCN1C(=O)NCCC1CCN(Cc2ccccc2)CC1

["7.00 to 8.00", "6.00 to 7.00", "6.00 to 7.00", "7.00 to 8.00", "> 8.00", "7.00 to 8.00"]

---

target: human M4 receptor (Homo sapiens (Human))
assay name: Radioligand (tritiated N-methylscopolamine) binding assay, M4
condition set: Ki against the M4 receptor; membranes from CHO cells expressing human M4; tritiated N-methylscopolamine 1.5 nM; read-out: Ki
pKi: −log10 of the molar value.
measurement label: pKi

Solved cases (8 shown):
{"compound": "O=C(NCCC1CCN(Cc2ccccc2)CC1)c1ccn2cc(-c3ccc(OC(F)(F)F)cc3)nc2c1", "pKi": "7.00 to 8.00"}
{"compound": "C[C@@H]1CN(c2ncc(C#N)cn2)C[C@H](C)N1C(=O)NCCC1CCN(CC2CCCCC2)CC1", "pKi": "7.00 to 8.00"}
{"compound": "Cc1nnc(C(c2ccccc2)N2CCC(CCNC(=O)N3CCN(c4cc(F)c(F)c(F)c4)C[C@H]3C)CC2)o1 (stereo partly shown)", "pKi": "6.00 to 7.00"}
{"compound": "C[C@@H]1CN(c2ccc(C#N)c(F)c2)C[C@H](C)N1C(=O)NCCC1CCN(Cc2ccccc2)CC1", "pKi": "> 8.00"}
{"compound": "O=C(OCCC1CCN(Cc2ccccc2)CC1)N1CCN(c2ccc(OC(F)(F)F)cc2)CC1", "pKi": "7.00 to 8.00"}
{"compound": "C[C@@H]1CN(c2ccc(C#N)c(C(F)(F)F)c2)CCN1C(=O)NCCC1CCN(Cc2ccccc2)CC1", "pKi": "> 8.00"}
{"compound": "C[C@@H]1CN(c2ncc(Cl)c(Cl)n2)CCN1C(=O)NCCC1CCN(Cc2ccccc2)CC1", "pKi": "6.00 to 7.00"}
{"compound": "C[C@@H]1CN(c2ncc(C(F)(F)F)c(N)n2)CCN1C(=O)NCCC1CCN(Cc2ccccc2)CC1 [5-29]", "pKi": "> 8.00"}

Quick one: give me pKi for each item below, same order please.
1. C[C@@H]1CN(c2ccc(Cl)nc2)CCN1C(=O)NCCC1CCN(Cc2ccccc2)CC1
2. Cc1nc(C(=O)NCCC2CCN(Cc3ccccc3)CC2)cn1-c1ccc(C#N)cn1
3. CC1CN(c2cccc(OC(F)(F)F)c2)CCC1C(=O)NCCC1CCN(Cc2ccccc2)CC1 (stereo not shown)
4. O=C(NCCC1CCN(Cc2ccc3[nH]ccc3c2)CC1)C1CCN(c2ccc(OC(F)(F)F)cc2)CC1
5. C[C@@H]1CN(c2ncc(C(F)(F)F)c(N)n2)CCN1C(=O)NCCC1CCN(Cc2ccccc2)CC1 [21-17]
6. O=C(NCCC1CCN(Cc2ccccc2)CC1O)C1CCN(c2ccc(OC(F)(F)F)cc2)CC1 (stereo not shown)

1: 7.00 to 8.00; 2: 6.00 to 7.00; 3: > 8.00; 4: 6.00 to 7.00; 5: > 8.00; 6: 7.00 to 8.00

Required: pKi, one value per compound below.
1. CN(C(=O)C1CCN(c2ccc(OC(F)(F)F)cc2)CC1)C1CCN(C2CCN(Cc3ccccc3)CC2)C1 (stereo not shown)
2. C[C@@H]1CN(c2ncc(C#N)cn2)C[C@H](C)N1C(=O)NCCC1CCN(CC23C4C5C6C4C2C6C53)CC1 (stereo partly shown)

1: 7.00 to 8.00; 2: 7.00 to 8.00

---

target: human M4 receptor (Homo sapiens (Human))
assay name: Radioligand (tritiated N-methylscopolamine) binding assay, M4
condition set: Ki against the M4 receptor; membranes from CHO cells expressing human M4; tritiated N-methylscopolamine 1.5 nM; read-out: Ki
Exercise: state measured Ki for each of the compounds provided.

Guide cases for Ki, answers given:
{"compound": "C[C@@H]1CN(c2nc(Cl)cc(C#N)n2)C[C@H](C)N1C(=O)NCCC1CCN(Cc2ccccc2)CC1 [4-11]", "Ki": "< 10 nM"}
{"compound": "O=C(NCCC1CCN(Cc2ccccc2)CC1)C1CCN(c2ncc(C(F)(F)F)cc2Cl)CC1 [9-63]", "Ki": "< 10 nM"}
{"compound": "O=C(c1ccc(-c2ccccc2)cc1)N(C1CC1)C1CCN(Cc2ccccc2)CC1 [9-2]", "Ki": "100 to 1000 nM"}
{"compound": "Cc1c(C(=O)NCCC2CCN(Cc3ccccc3)CC2)cnc2cc(-c3cc(F)c(F)c(F)c3)nn12 [18-17]", "Ki": "< 10 nM"}
{"compound": "Cc1c(C(=O)NCCC2CCN(Cc3ccccc3)CC2)cnc2cc(-c3ccc(C#N)c(F)c3)nn12 [18-12]", "Ki": "10 to 100 nM"}

I would be grateful if you could provide Ki for each of the following entries.
1. CC1(C(=O)NCCC2CCN(Cc3ccccc3)CC2)CCN(c2ccccc2OC(F)(F)F)CC1 [10-4]
2. C[C@H]1CN(c2ccc(OC(F)(F)F)c(C#N)c2)CCN1C(=O)NCCC1CCN(Cc2ccccc2)CC1 [4-21]

["100 to 1000 nM", "< 10 nM"]

---

Consider the following molecules; for each one, report its pKi.
target: human M4 receptor (Homo sapiens (Human))
assay name: Radioligand (tritiated N-methylscopolamine) binding assay, M4
condition set: Ki against the M4 receptor; membranes from CHO cells expressing human M4; tritiated N-methylscopolamine 1.5 nM; read-out: Ki
pKi: −log10 of the molar value.

Study these solved cases before continuing.
{"molecule": "C[C@@H]1CN(c2nc(C#N)cc(C#N)n2)CCN1C(=O)NCCC1CCN(Cc2ccccc2)CC1 [4-38]", "pKi": "7.00 to 8.00"}
{"molecule": "C[C@@H]1CN(c2ccc(C#N)c(OC(F)(F)F)c2)CCN1C(=O)NCCC1CCN(Cc2ccccc2)CC1 [22-17]", "pKi": "> 8.00"}
{"molecule": "O=C(NCCC1CCN(Cc2ccccc2)CC1)C1(O)CCN(c2cc(F)ccc2F)CC1 [10-64]", "pKi": "6.00 to 7.00"}
{"molecule": "C[C@@H]1CN(c2ncc(F)cn2)C[C@H](C)N1C(=O)NCCC1CCN(Cc2ccccc2)CC1 [5-19]", "pKi": "7.00 to 8.00"}

Kindly give each listed record's pKi.
1. COc1ccc(N2CCC(C(=O)NCCC3CCN(Cc4ccccc4)CC3)CC2)nc1 [10-28]
2. C[C@@H]1CN(c2ccc(F)cc2)CCN1C(=O)NCCC1CCN(Cc2ccccc2)CC1 [4-30]
3. COc1ccc(N2CCC(C(=O)NCCC3CCN(Cc4ccccc4)CC3)CC2)cc1F [10-39]

6.00 to 7.00
7.00 to 8.00
7.00 to 8.00

Lab note: each molecule below needs its pKi filled in.
1. Cc1cc(CN2CCC(CCNC(=O)N3[C@H](C)CN(c4cnc(C(F)(F)F)nc4)C[C@@H]3C)CC2)ccc1O [6-49]
2. C[C@@H]1CN(c2ccc(F)c(C#N)c2)CCN1C(=O)NCCC1(O)CCN(Cc2ccccc2)CC1 [7-11]
3. C[C@@H]1CN(c2cc(F)c(F)c(F)c2)CCN1C(=O)NCCC1CCN(Cc2ccccc2F)CC1 [6-5]

["6.00 to 7.00", "> 8.00", "7.00 to 8.00"]

Batch lookup, pKi per entry.
1. O=C(NCCC1CCN(Cc2ccccc2)CC1CO)N1CCN(c2cc(F)c(F)c(F)c2)CC1 (stereo not drawn) [3-19]
2. N#Cc1cc(N2CCC(C(=O)NCCC3(O)CCN(Cc4ccccc4)CC3)CC2)ccc1F [9-44]
3. O=C(NCCC1CCN(Cc2ccccc2)CC1)C1(F)CCN(c2ccccc2OC(F)(F)F)CC1 [10-17]
4. O=C(NCC[C@H]1CCN(Cc2ccccc2)C1)C1CCN(c2ccc(OC(F)(F)F)cc2)CC1 [9-49]
5. O=C(NCCC1CCN(Cc2ccccc2)CC1)N1CCC(c2ccc(C(F)(F)F)cc2)CC1 [8-1]
6. C[C@@H]1CN(c2ccc(OC(F)(F)F)c(C#N)c2)CCN1C(=O)NC[C@@H](O)C1CCN(Cc2ccccc2)CC1 [3-21]
7. COC(=O)c1ccc(-c2ccc(C(=O)NCCC3CCN(Cc4ccccc4)CC3)cc2)cc1 [9-14]

["> 8.00", "7.00 to 8.00", "6.00 to 7.00", "6.00 to 7.00", "> 8.00", "> 8.00", "7.00 to 8.00"]
